Please go through the items and note down their melting temperature.
- System: HeLa Kyoto;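 further: HeLa Kyoto cells synchronized by double thymidine or nocodazole block, proteins quantified by TMT10plex mass spectrometry, three independent biological replicates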
- assayName: melting temperature (median over replicates), in situ; higher = more thermally stable
- measurementContext: cell cycle stage: G1/S
Value expressed in °C; do not type the unit.

[in] Hi! What's the reported melting temperature for MTSRSTARPNGQPQASKICQFKLVLLGESAVGKSSLVLRFVKGQFHEYQESTIGAAFLTQSVCLDDTTVKFEIWDTAGQERYHSLAPMYYRGAQAAIVVYDITNQETFARAKTWVKELQRQASPSIVIALAGNKADLANKRMVEYEEAQAYADDNSLLFMETSAKTAMNVNDLFLAIAKKLPKSEPQNLGGAAGRSRGVDLHEQSQQNKSQCCSN [RAB5B] on HeLa Kyoto?
[out] 57.4

[in] Tell me reported melting temperature for MPGVKLTTQAYCKMVLHGAKYPHCAVNGLLVAEKQKPRKEHLPLGGPGAHHTLFVDCIPLFHGTLALAPMLEVALTLIDSWCKDHSYVIAGYYQANERVKDASPNQVAEKVASRIAEGFSDTALIMVDNTKFTMDCVAPTIHVYEHHENRWRCRDPHHDYCEDWPEAQRISASLLDSRSYETLVDFDNHLDDIRNDWTNPEINKAVLHLC [EMC8] , tested with HeLa Kyoto.
[out] 53.1

[in] Enter reported melting temperature observed with HeLa Kyoto for MASLKCSTVVCVICLEKPKYRCPACRVPYCSVVCFRKHKEQCNPETRPVEKKIRSALPTKTVKPVENKDDDDSIADFLNSDEEEDRVSLQNLKNLGESATLRSLLLNPHLRQLMVNLDQGEDKAKLMRAYMQEPLFVEFADCCLGIVEPSQNEES [ZNHIT3]
[out] 50.4

[in] Find melting temperature (HeLa Kyoto) for the entry MGNVLAASSPPAGPPPPPAPALVGLPPPPPSPPGFTLPPLGGSLGAGTSTSRSSERTPGAATASASGAAEDGACGCLPNPGTFEECHRKCKELFPIQMEGVKLTVNKGLSNHFQVNHTVALSTIGESNYHFGVTYVGTKQLSPTEAFPVLVGDMDNSGSLNAQVIHQLGPGLRSKMAIQTQQSKFVNWQVDGEYRGSDFTAAVTLGNPDVLVGSGILVAHYLQSITPCLALGGELVYHRRPGEEGTVMSLAGKYTLNNWLATVTLGQAGMHATYYHKASDQLQVGVEFEASTRMQDTSVSFGYQLDLPKANLLFKGSVDSNWIVGATLEKKLPPLPLTLALGAFLNHRKNKFQCGFGLTIG [TOMM40]
[out] 62.9
